For each of the compounds below, state its thermal shift delta Tm.
system: LOC_OS01G51400-cb002; assay: thermal shift delta Tm vs DMSO control; higher = stronger stabilization (binding); conditions: 12.5 µM; protein concentration 2 µM;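 note: purified Escherichia coli-expressed rice kinase domain construct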
Numbers only, in °C.

C[C@@H](Oc1cc(-n2cnc3ccc(CN4CCN(C)CC4)cc32)sc1C(N)=O)c1ccccc1C(F)(F)F
-0.17
C=CC(=O)Nc1cccc(Oc2nc(Nc3ccc(N4CCN(C)CC4)cc3OC)ncc2Cl)c1
0.48
Cc1cc(Nc2ncnc3ccc(NC4=NC(C)(C)CO4)cc23)ccc1Oc1ccn2ncnc2c1
-3.07

Input line: Please provide the recorded thermal shift delta Tm for `CCCS(=O)(=O)Nc1ccc(F)c(C(=O)c2c[nH]c3ncc(-c4ccc(Cl)cc4)cc23)c1F` , tested on LOC_OS01G51400-cb002.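 Note: purified Escherichia coli-expressed rice kinase domain construct.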
Output line: 1.03

The measured values listed here are drawn from the supplement of paper PMC9694430.
